Molecular target: T1, human alpha CGRP (SEQ ID NO: 80) (human, not fully specified)
T1 peptide: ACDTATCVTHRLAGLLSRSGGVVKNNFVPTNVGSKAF
Assay: cell-based or functional assay
assay.readout: cAMP assay IC50, SK-N-MC cells

Input cysteine-free lipocalin mutein SEQ ID NO: 38 (designed binder, biotinylated by NHS chemistry for capture in SPR) QDSTSDLIPAPPLSKVPLQQNFQDNQFQGKWYVVGWAGNTLLREDKDPIKMQAMIYELKEDKSYNVTWVYFADKKRNYHIETFVPGSQPGEFTLGTIKSYPGETPILVRVVSTNYNQHAMVFFKGVNQNREIFEIVLYGRTKELTNELKENFIRFSKSLGLPENHIVFPVPIDQVIDGSAWSHPQFEK , output reported cAMP assay IC50, SK-N-MC cells.
210 pM

Provide one value: measured cAMP assay IC50, SK-N-MC cells of cysteine-free lipocalin mutein SEQ ID NO: 35 (designed binder, biotinylated by NHS chemistry for capture in SPR) QDSTSDLIPAPPLSKVPLQQNFQDNQFQGKWYVVGWAGNTLLREDKDPIKMQAMIYELKEDKSYNVTWVYFADKKVNYHIETFVPGSQPGEFTLGTIKSYPGETPILVRVVSTNYNQHAMVFFKGVNQNREIFEIVLYGRTKELTNELKENFIRFSKSLGLPENHIVFPVPIDQYIDGSAWSHPQFEK
150 pM
